System: MDA−MB−231 cells
assay details: TMRE mitochondrial membrane potential assay
Format: cell-based
conditions: MDA−MB−231, 24 h, complexes at IC50, FCCP 20 µM
Protocol: Cells were then treated with an IC50 drug concentration for each complex. At 24, 48 or 72 h, DMEM was removed, and cells were washed with PBS. Then, cells were incubated with 1 µM tetramethylrhodamine, ethyl ester (TMRE) stain for 30 min. TMRE was then removed, and cells were washed twice with PBS (0.2% BSA), after which phenol red-free media was added. […] The cells were then stained with TMRE, as described above, and the resulting solution was scanned for fluorescence. […]
Give MtMp (mitochondrial membrane potential) for every item shown.
State just the number; it will be interpreted in RFU.

Give MDA−MB−231 cells MtMp (mitochondrial membrane potential) for N#CC(C#N)=NNc1ccc(OC(F)(F)F)cc1 [FCCP, reference compound] 215.89

Item Cc1cc2cccnc2c2ncccc12.N[C@H]1CCCC[C@@H]1N.O=[N+]([O-])[O-].O=[N+]([O-])[O-].[Pt+2] [Pt^II5MESS] with MDA−MB−231 cells - MtMp (mitochondrial membrane potential)? 230.62

Report MtMp (mitochondrial membrane potential) for N[C@H]1CCCC[C@@H]1N.O=[N+]([O-])[O-].O=[N+]([O-])[O-].[OH-].[OH-].[Pt+4].c1cnc2c(c1)ccc1cccnc12 tested on MDA−MB−231 cells. 297.56

Give recorded MtMp (mitochondrial membrane potential) with MDA−MB−231 cells for the following compound: Cc1cc2cccnc2c2ncccc12.N[C@H]1CCCC[C@@H]1N.O=[N+]([O-])[O-].O=[N+]([O-])[O-].[OH][Pt+2][OH] [Pt^IV5MESS(OH)2] 250.80
